- Test system: NIH/3T3 cells transfected with control vector
- protocol: NIH/3T3 mock cell proliferation assay (counter assay, general toxicity)
- Type: cell-based
- measurementParameters: Mus musculus, NIH3T3; 72-hr incubation, CellTiter Glo; read-out: NIH/3T3 MOCK CTG
recordedMetric: pIC50
Answer as the number alone; pIC50 is minus log10 of concentration in mol/L.

Inquiry: Under NIH/3T3 cells transfected with control vector, report pIC50 for CC(C)[C@H](Nc1c(-c2nc3cnc(N4CCN(C)CC4)cc3[nH]2)c(=O)[nH]c2ccsc12)c1ncccn1 (single isomer, unassigned) [Compound 12]
Reply text: 6.32

Inquiry: Under NIH/3T3 cells transfected with control vector, report pIC50 for C[C@H](Nc1c(-c2nc3cnc(N4CCOCC4)cc3[nH]2)c(=O)[nH]c2ccsc12)c1ncccn1 [Compound 2]
Reply text: 6.05

Inquiry: Under NIH/3T3 cells transfected with control vector, report pIC50 for C[C@H](Nc1c(-c2nc3cnc(N4CCN(C)CC4)cc3[nH]2)c(=O)[nH]c2ccsc12)c1ncccn1 [Compound 5]
Reply text: 6.24

Inquiry: Under NIH/3T3 cells transfected with control vector, report pIC50 for COCC(Nc1c(-c2nc3cnc(N4C[C@@H](C)O[C@@H](C)C4)cc3[nH]2)c(=O)[nH]c2ccsc12)c1ncccn1 (single isomer, unassigned) [Compound 7]
Reply text: 5.52

Inquiry: Under NIH/3T3 cells transfected with control vector, report pIC50 for COC[C@H](Nc1c(-c2nc3ccc(N4C[C@@H](C)O[C@@H](C)C4)nc3[nH]2)c(=O)[nH]c2ccsc12)c1ncccn1 (single isomer, unassigned) [Compound 11]
Reply text: 5.49
